# Tested on: 327498-153-R-J2-PDC complex spheroid growth, % test/control;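 also: spheroids exposed to compound for 7 days after 3 days of growth; 100% = DMSO vehicle control wells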
# Test description: Anticancer human tumor 327498-153-R-J2-PDC patient-derived uterine carcinosarcoma cell line growth inhibition [Asc]
# Conditions used: second compound 3 µM; first compound 1 µM; hits give low values
viability, T/C overview
Measure: viability, T/C (%)

INSERT INTO assay_data (compound, numeric_result) VALUES
  ('C=C(F)C(=O)N1CCN(c2nc(OCC3CCCN3C)nc3c2CCN(c2cccc4cccc(Cl)c24)C3)CC1CC#N (centres undefined) + CCN1C(C(=O)NC23CCC(C(=O)O)(CC2)CC3)C(c2cccc(Cl)c2F)C2(C(=O)Nc3cc(Cl)ccc32)C12CCCCC2', 0.65),
  ('C=CC(=O)N1CCN(c2nc(=O)n(-c3c(C)ccnc3C(C)C)c3nc(-c4c(O)cccc4F)c(F)cc23)C(C)C1 (centres undefined) + CCN1C(C(=O)NC23CCC(C(=O)O)(CC2)CC3)C(c2cccc(Cl)c2F)C2(C(=O)Nc3cc(Cl)ccc32)C12CCCCC2', 2.75),
  ('O=C(c1cc(Cc2n[nH]c(=O)c3ccccc23)ccc1F)N1CCN(C(=O)C2CC2)CC1 + CCN1C(C(=O)NC23CCC(C(=O)O)(CC2)CC3)C(c2cccc(Cl)c2F)C2(C(=O)Nc3cc(Cl)ccc32)C12CCCCC2', 3.39),
  ('O=C(c1ccc(F)c(F)c1Nc1ccc(I)cc1F)N1CC(O)([C@@H]2CCCCN2)C1 + CCN1C(C(=O)NC23CCC(C(=O)O)(CC2)CC3)C(c2cccc(Cl)c2F)C2(C(=O)Nc3cc(Cl)ccc32)C12CCCCC2', 0.86);
